meta.source: patent US10947242B2

Molecular target: Rat recombinant PDE10A (rPDE10A2) (Rattus norvegicus)
Construct: His tag (inferred from metal chelate purification); made in house; host or cells: Sf9 insect cells (baculovirus)
Sequence (Q9QYJ6 1-794): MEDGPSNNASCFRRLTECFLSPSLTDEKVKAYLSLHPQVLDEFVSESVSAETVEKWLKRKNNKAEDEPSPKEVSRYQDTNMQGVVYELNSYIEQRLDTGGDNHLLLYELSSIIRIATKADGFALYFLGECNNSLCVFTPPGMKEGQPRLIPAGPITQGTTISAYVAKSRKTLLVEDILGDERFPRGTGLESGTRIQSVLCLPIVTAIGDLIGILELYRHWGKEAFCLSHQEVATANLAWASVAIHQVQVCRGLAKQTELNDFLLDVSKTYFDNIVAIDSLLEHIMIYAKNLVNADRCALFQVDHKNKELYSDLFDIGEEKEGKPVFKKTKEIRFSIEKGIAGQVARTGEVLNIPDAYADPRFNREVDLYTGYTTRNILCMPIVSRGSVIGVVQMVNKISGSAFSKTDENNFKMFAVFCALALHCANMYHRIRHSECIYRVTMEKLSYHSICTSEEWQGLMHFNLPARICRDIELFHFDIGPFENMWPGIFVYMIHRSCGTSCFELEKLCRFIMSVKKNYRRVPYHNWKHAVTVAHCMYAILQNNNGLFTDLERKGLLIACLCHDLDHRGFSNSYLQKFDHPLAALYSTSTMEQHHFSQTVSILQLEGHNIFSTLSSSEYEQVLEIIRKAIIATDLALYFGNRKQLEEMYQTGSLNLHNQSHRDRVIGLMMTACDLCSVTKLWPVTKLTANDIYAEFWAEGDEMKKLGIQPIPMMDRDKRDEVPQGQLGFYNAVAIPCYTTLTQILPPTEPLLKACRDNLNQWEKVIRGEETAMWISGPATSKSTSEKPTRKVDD
Assay: In vitro assay PDE10A, rat clone (SPA, 3H-cAMP hydrolysis)
Type: biochemical
Details: rat clone, indicated as (r)
measured.parameter: rPDE10A2 pIC50

Q) Quick one: rPDE10A2 pIC50 for C[C@@H]1CCN(C(=O)c2ccc3c(ccn3CCF)c2)C[C@H]1c1cc(C(F)F)nc2ncnn12 [Compound 89] ?
A) 7.92 (r)

Q) Given the molecule CC1(c2cc(C(F)F)nc3ncnn23)CCCN(C(=O)c2ccc3occc3c2)C1 (centres unmarked) [Compound 201] , what is its reported rPDE10A2 pIC50?
A) 5.51 (r)

Q) What rPDE10A2 pIC50 value was documented for this molecule, C[C@@H]1CCN(C(=O)c2ccc3occc3c2)C[C@H]1c1cc(C(F)F)nc2ncnn12 [Compound 97] ?
A) 7.46 (r)

Q) Could you share which rPDE10A2 pIC50 value was measured for CC1(c2ccnc3ncnn23)CCCN(C(=O)c2ccc3occc3c2)C1 (centres unmarked) [Compound 202] ?
A) <5 (r)

Q) Tell me the measured rPDE10A2 pIC50 of CC(=O)N1CCc2cc(C(=O)N3CCC[C@@](C)(c4cc(C(F)F)nc5ncnn45)C3)ccc21 (single isomer, unassigned) [Compound 203] , please.
A) <5 (r)

----------
measured.parameter: melting point (°C)
# number only, unit °C dropped from output

Q) Sample Cc1cc(C(=O)N2CC[C@@H](C)[C@H](c3cc(C(F)F)nc4ncnn34)C2)cc(F)c1F — what was its melting point?
A) 152.03

Q) # lookup: melting point of Cc1cc(C(=O)N2[C@H]3CC[C@H](c4cc(C(F)F)nc5ncnn45)[C@@H]2CC3)ccc1Cl
A) 171.51

Q) Can you look up the measured melting point of COc1cc(C(=O)N2CC[C@@H](C)[C@H](c3cc(C)nc4ncnn34)C2)cc(Cl)n1 for me?
A) 217.82

Q) Entry under review: Cc1cc(C)cc(C(=O)N2CCC[C@](C)(c3cc(C(F)F)nc4ncnn34)C2)c1 (single isomer, unassigned) . Reported melting point?
A) 145.73

Q) Which melting point reading was recorded for the compound Cc1csc(C(=O)N2CC[C@H](C)[C@@H](c3cc(C(F)F)nc4ncnn34)C2)c1 ?
A) 169.7

Q) // lookup melting point for C[C@@H]1CCN(C(=O)c2ccc3cc[nH]c3c2)C[C@H]1c1cc(C(F)F)nc2ncnn12
A) 273.02

Q) Suppose we examine the compound COc1cc(C(=O)N2CC[C@@H](C)[C@H](c3cc(C(F)F)nc4ncnn34)C2)cc(Cl)n1 ; what melting point value has been reported?
A) 151.39

Q) Need melting point of Cc1cc(C(=O)N2CCC[C@](C)(c3cc(C(F)F)nc4ncnn34)C2)cc(C)n1 (single isomer, unassigned) , thanks.
A) 117.5

Q) Name the recorded melting point for C[C@@H]1CCN(C(=O)c2ccc(Cl)c(Cl)c2)C[C@H]1c1cc(C(F)F)nc2ncnn12 .
A) 188.75

Q) Query (compound): COc1ccc(C(=O)N2[C@H]3CC[C@H](c4cc(C(F)F)nc5ncnn45)[C@@H]2CC3)cc1Cl ; field requested: melting point
A) 175.71

Q) Which melting point value belongs to Cc1nn(C)cc1C(=O)N1CCC[C@](C)(c2cc(C(F)F)nc3ncnn23)C1 (single isomer, unassigned) ?
A) 173.79

Q) Returns the measured melting point for the input compound. Input: O=C(c1ccc(Cl)c(Cl)c1)N1[C@H]2CC[C@H](c3cc(C(F)F)nc4ncnn34)[C@@H]1CC2
A) 187.93

Q) For the compound shown here, COc1cc(C(=O)N2CC[C@@H](C)[C@H](c3cc(C(F)F)nc4ncnn34)C2)ccc1C1CC1 , give the reported melting point.
A) 179.82

Q) Find the recorded melting point belonging to Cc1cc(C(=O)N2[C@H]3CC[C@H](c4cc(C(F)F)nc5ncnn45)[C@@H]2CC3)cc(C)n1 [Compound 29] and report it.
A) 176.52

Q) Quick check: melting point of C[C@@H]1CCN(C(=O)c2ccc3ocnc3c2)C[C@H]1c1cc(C(F)F)nc2ncnn12 ?
A) 192.09

Q) Quick one: melting point for C[C@@H]1CCN(C(=O)c2ccc(OC(F)F)c(F)c2)C[C@H]1c1cc(C(F)F)nc2ncnn12 ?
A) 110.16

Q) So what's the measured melting point for this one? Cc1cc(C(=O)N2CC[C@@H](C)[C@H](c3cc(C(F)F)nc4ncnn34)C2)cc(Cl)c1F
A) 140.78

Q) I am curious: what melting point value has been reported for C[C@@H]1CCN(C(=O)c2ccc(F)c(C(F)(F)F)c2)C[C@H]1c1cc(C(F)F)nc2ncnn12 ?
A) 167.52

Q) # query: melting point of entry Cc1ccc(C(=O)N2CCC[C@](C)(c3cc(C(F)F)nc4ncnn34)C2)c(C)n1 (single isomer, unassigned)
A) 195.81

Q) For CC(C)n1ccc2cc(C(=O)N3[C@H]4CC[C@H](c5cc(C(F)F)nc6ncnn56)[C@@H]3CC4)ccc21 , what is its reported melting point?
A) 146.08

Q) Look up melting point for this compound: C[C@@H]1CCN(C(=O)c2ccc3nccn3c2)C[C@H]1c1cc(C(F)F)nc2ncnn12
A) 181.11

Q) Quick one: melting point of C[C@@H]1CCN(C(=O)c2cnc3ccccc3c2)C[C@H]1c1cc(C(F)F)nc2ncnn12 ?
A) 204.06

Q) What value of melting point has been reported for the following compound? COc1c(C)cc(C(=O)N2CC[C@@H](C)[C@H](c3cc(C(F)F)nc4ncnn34)C2)cc1C
A) 177.37

Q) # query: melting point of entry Cc1nc2ccc(C(=O)N3CC[C@@H](C)[C@H](c4cc(C(F)F)nc5ncnn45)C3)cc2o1
A) 139.13

Q) I am curious: what melting point value has been reported for O=C(c1cnc2c(Cl)cccc2c1)N1[C@H]2CC[C@H](c3cc(C(F)F)nc4ncnn34)[C@@H]1CC2 ?
A) 240.9

Q) Form field: reported melting point of CC1(c2cc(C(F)F)nc3ncnn23)CCCN(C(=O)c2ccc3occc3c2)C1 (centres unmarked)
A) 140.14

Q) Query (compound): Cn1ccc2cc(C(=O)N3[C@H]4CC[C@H](c5cc(C(F)F)nc6ncnn56)[C@@H]3CC4)ccc21 ; field requested: melting point
A) 178.8

Q) Entry under review: C[C@@H]1CCN(C(=O)c2ccc(Cl)c(C3CC3)c2)C[C@H]1c1cc(C(F)F)nc2ncnn12 . Reported melting point?
A) 177.6

Q) Name the recorded melting point for COc1ccc(C(=O)N2CC[C@@H](C)[C@H](c3cc(C(F)F)nc4ncnn34)C2)cc1OC(F)F .
A) 152.33
